Tested on: MDA-MB231, BT549 and MCF-7 breast cancer cells
Test: Cell proliferation, MTT assay, DOT1L+ breast cancer cells
Format: cell-based, Human
Details: Homo sapiens, 360 h; DOT1L+ breast cancer cells, 15-day; read-out: anti-proliferation EC50
pEC50: −log10 of the molar value.
property_name: pEC50

Q) Query: pEC50; subject: "CC(C)N(CCCNC(=O)Nc1ccc(C(C)(C)C)cc1)C[C@H]1O[C@@H](n2ccc3c(N)ncnc32)[C@H](O)[C@@H]1O"
A) ≤ 6.72

---

Test system: MCF-7
Experiment: Cell proliferation, MTT assay
Type: cell-based
Conditions: Homo sapiens, MCF7, 72 h; MCF-7, 3-day treatment; read-out: Anti-proliferative activity EC50
property_name: EC50 (µM)
Report the figure in µM without appending any unit label.

Q) # lookup: EC50 of CC(C)N(CCCNC(=O)Nc1ccc(C(C)(C)C)cc1)C[C@H]1O[C@@H](n2ccc3c(N)ncnc32)[C@H](O)[C@@H]1O [Compound 1, EPZ004777]
A) 15

Q) What does the record list as EC50 for Cc1cc(C)c(CNC(=O)c2cc(-c3ccc(CN4CCOCC4)cc3)cc3c2cnn3C2CCCC2)c(=O)[nH]1 [Compound 5, EPZ005687] ?
A) 28

Q) May I ask what EC50 has been recorded for Nc1ncnc2c1ncn2[C@@H]1C=C(CO)[C@@H](O)[C@H]1O [Compound 3, neplanocin A] ?
A) 0.91
